# study_system: T1, apical domain of cynomolgus CD71 (cynomolgus, UniProt A0A2K5X958 189-383)
# T1 construct: domain: apical domain; also called Cyno apical domain
# T1 sequence (A0A2K5X958 entry or part of it): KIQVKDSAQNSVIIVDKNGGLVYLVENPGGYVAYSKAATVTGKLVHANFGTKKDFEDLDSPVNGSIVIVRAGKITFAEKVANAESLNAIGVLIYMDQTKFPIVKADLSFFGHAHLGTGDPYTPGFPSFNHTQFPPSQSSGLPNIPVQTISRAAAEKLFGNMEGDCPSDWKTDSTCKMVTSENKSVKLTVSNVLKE
# assay_comment: primary ELISA, signal ratio to HSA
measure_name: Cyno apical domain:HSA
Please give the numeric answer without any surrounding text.

Prompt: Can you look up the measured Cyno apical domain:HSA of CD71-binding FN3 domain of SEQ ID NO: 162 (designed binder) MSLPAPKNLVVSRVTEDSARLSWTALDAAFDSFEISYWEHTFNGEAIILFVPGSERSYDLTGLKPGTEYYVTIGGVKGGAWSPPLWAEFTT for me?
Completion: 296

Prompt: Which Cyno apical domain:HSA reading was recorded for the binder CD71-binding FN3 domain of SEQ ID NO: 193 (designed binder) MSLPAPKNLVVSRVTEDSARLSWTAPDAAFDSFEIGYFENLYLGEAIVLTVPGSERSYDLTGLKPGTEYWVQIGGVKGGNWSEPLSAIFTT ?
Completion: 116

Prompt: Suppose we examine the binder CD71-binding FN3 domain of SEQ ID NO: 187 (designed binder) MSLPAPKNLVVSRVTEDSARLSWTAPDAAFDSFEIGYWENAYKGEAIVLTVPGSERSYDLTGLKPGTEYRVWIGGVKGGVWSRPLSAIFTT ; what Cyno apical domain:HSA value has been reported?
Completion: 93

Prompt: Can you look up the measured Cyno apical domain:HSA of CD71-binding FN3 domain of SEQ ID NO: 133 (designed binder) MSLPAPKNLVVSRVTEDSARLSWTAPDAAFDSFKIKYAEYDRYGEAIALFVPGSERSYDLTGLKPGTEYFVHIDGVKGGTDSQPLVASFTT for me?
Completion: 387
